- PROCEDURE_DETAILS: Acute toxicity in mice (LD50, Bliss' method)
- EXPERIMENTAL_SETUP: mouse, in vivo, ip, read-out: Lethal doses50 i.p.

{"columns": ["COMPOUND", "LD50"],
 "data": [
  ["O=C(NCC1CCCN1CC1CC1)c1cc(S(=O)(=O)CC2CC2)cc2c1OCCC2 (centres unmarked)", "163 to 165 mg/kg"],
  ["CCS(=O)(=O)c1cc2c(c(C(=O)NCC3CCCN3CC3CC3)c1)OC(C)C2.Cl (centres unmarked)", "211 to 213 mg/kg"],
  ["CCN1CCCC1CNC(=O)c1cccc2c1OCCC2.O=C(O)/C=C/C(=O)O (centres unmarked)", "111 to 112 mg/kg"],
  ["C=CCN1CCCC1CNC(=O)c1cc(S(=O)(=O)CC2CC2)cc2c1OCCC2 (centres unmarked)", "261 mg/kg"],
  ["CNS(=O)(=O)c1cc2c(c(C(=O)NCC3CCCN3CC3=CCCCC3)c1)OCCC2 (centres unmarked)", "167 to 172 mg/kg"],
  ["CCN1CCCC1CNC(=O)c1cc(S(=O)(=O)CC)c(OC)c2c1OC(C)C2.Cl (centres unmarked)", "230 to 242 mg/kg"],
  ["CC1Cc2cc(S(=O)(=O)CC3CC3)cc(C(=O)NCC3CCCN3CC3=CCCCC3)c2O1.CS(=O)(=O)O (centres unmarked)", "117 to 125 mg/kg"],
  ["CCS(=O)(=O)c1cc(C(=O)NCC2CCCN2CC2CC2)c2c(c1N)CCCO2 (centres unmarked)", "167 to 179 mg/kg"],
  ["CCN1CCCC1CNC(=O)c1cc(S(=O)(=O)CC2CC2)cc2c1OC(C)C2 (centres unmarked)", "224 to 228 mg/kg"],
  ["CNS(=O)(=O)c1cc(C(=O)NCC2CCCN2CC2CC2)c2c(c1N)CCCO2.Cl (centres unmarked)", "195 mg/kg"],
  ["CCN1CCCC1CNC(=O)c1cc(S(=O)(=O)CC2CC2)cc2c1OCCC2 (centres unmarked)", "188 to 195 mg/kg"]
]}

Hey, just so you know, these numbers are from patent US5006570A.
